Where these numbers come from: paper PMC3565245

# target-of-assay: Giardia lamblia carbamate kinase (glCK) (Giardia intestinalis, UniProt A8BB85)
# protocol-description: Luminescence-based carbamate kinase assay in 1536-well format
# Assay type: biochemical
# measurement-setup: maximal response of the fitted curve, luminescence assay
Structures can show the parent of a compound that is named as a salt.
Field: class. Source value: Efficacy (% Inhibition). Ranges: one = under 80%, two = from 80% up to 90%, three = 90% and over

Worked examples, 5 compounds total:
O=C([O-])c1ccccc1-c1c2cc(Br)c(=O)cc-2oc2[c]([Hg+])c([O-])c(Br)cc12.[Na+].[Na+].[OH-] | three
Oc1cccc(O)c1O | one
O=C(O)[C@@H](S)[C@@H](S)C(=O)O | two
Oc1ccc(C2CNCCc3c2cc(O)c(O)c3Cl)cc1 (centres unmarked) | two
Oc1cc2c(cc1O)[C@H]1c3ccccc3CN[C@@H]1CC2 (racemic) [Dihydrexidine hydrochloride] | two

Please look at the following compound next.
GET /class?item= "CC(C)(C)C(=O)OCOP(=O)(COCCn1cnc2c(N)ncnc21)OCOC(=O)C(C)(C)C"
two

* * *

# target-of-assay: Giardia lamblia carbamate kinase (glCK) (Giardia intestinalis)
# protocol-description: Luminescence-based carbamate kinase assay in 1536-well format
# Format: biochemical
# measurement-setup: IC50, values of the running text, chelator class
quantity: IC50 (µM)
Note: unit µM is implicit; provide only the numeric part.

Which IC50 value is on record for "CN(C)C(=S)SSC(=S)N(C)C" ?
4.1

* * *

Each entry below carries its recorded IC50.
# target-of-assay: Giardia lamblia carbamate kinase (glCK) (Giardia intestinalis, UniProt A8BB85)
# protocol-description: Luminescence-based carbamate kinase assay in 1536-well format
# Type: biochemical
# measurement-setup: IC50 Luminescence Assay, Table 3, secondary assay comparison
Note: unit µM is implicit; provide only the numeric part.

O=C(O)Cc1ccc(O)c(O)c1 [3,4-Dihydroxyphenylacetic acid] | 6.51

Which IC50 value is on record for "CCN(CC)C(=S)SSC(=S)N(CC)CC" ?
0.58

Which IC50 value is on record for O=C1C2CC=CCC2C(=O)N1SC(Cl)(Cl)Cl (stereo not shown) ?
2.59

* * *

# target-of-assay: Giardia lamblia carbamate kinase (glCK) (Giardia intestinalis)
# protocol-description: Luminescence-based carbamate kinase assay in 1536-well format
# Format: biochemical
# measurement-setup: read-out: IC50 Luminescence Assay; Table 3, secondary assay comparison
quantity: pIC50
# pIC50 is unitless: minus log10 of the molar concentration; print number only

Which pIC50 value is on record for "O=C([O-])c1ccccc1-c1c2cc(Br)c(=O)cc-2oc2[c]([Hg+])c([O-])c(Br)cc12.[Na+].[Na+].[OH-]" ?
5.69

* * *

# target-of-assay: glCK (Giardia intestinalis)
# Sequence (A8BB85 1-316): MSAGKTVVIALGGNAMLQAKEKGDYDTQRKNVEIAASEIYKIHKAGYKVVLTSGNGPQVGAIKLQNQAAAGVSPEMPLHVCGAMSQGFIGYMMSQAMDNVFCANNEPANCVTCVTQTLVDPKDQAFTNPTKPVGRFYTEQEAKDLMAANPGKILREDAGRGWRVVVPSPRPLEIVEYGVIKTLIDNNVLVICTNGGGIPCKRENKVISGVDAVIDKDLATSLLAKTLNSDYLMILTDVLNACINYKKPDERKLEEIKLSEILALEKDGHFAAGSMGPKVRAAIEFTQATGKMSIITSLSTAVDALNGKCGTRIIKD
# protocol-description: Absorbance-based carbamate kinase assay
# Type: biochemical, Giardia lamblia
pIC50: −log10 of the molar value. Where a name gives a salt, the structure may show the parent alone.
Criterion: pIC50 meeting or surpassing 6. Met: MET. Not met: NOT MET.

CN1CCc2cccc3c2[C@H]1Cc1ccc(O)c(O)c1-3 [Apomorphine hydrochloride hemihydrate] | NOT MET
O=C(O)c1cc(O)c(O)c(O)c1 | NOT MET

Can "O=C(O)[C@@H](S)[C@@H](S)C(=O)O" be said to have pIC50 at or above 6?
MET

Can "C[C@@](Cc1ccc(O)c(O)c1)(NN)C(=O)O" be said to have pIC50 at or above 6?
NOT MET

Can O=C1C2CC=CCC2C(=O)N1SC(Cl)(Cl)Cl (stereo not shown) be said to have pIC50 at or above 6?
MET
